Data provenance is patent US20220033406A1.

Tested on: HBV
Assay: Inhibition of HBV in HepG2.117 cells (anti-HBV activity, qPCR)
Type: cell-based
Conditions: 96 h, HBV viral DNA copy numbers in supernatant by qPCR, Table 4 phosphoramidate prodrugs

MOLECULE	TARGET OF ASSAY	EC50 / nM
C=C1[C@@H](n2cnc3c(=O)[nH]c(N)nc32)C[C@H](O)[C@@]1(C#N)COP(=O)(N[C@@H](C)C(=O)OC(C)C)Oc1ccccc1 (single isomer, unassigned) [Example 43]	HBV	591

###

Biological target: Recombinant full-length HBV polymerase (HBVpol) (Hepatitis B virus genotype D subtype ayw)
Construct: Recombinant full-length HBV polymerase(HBVpol) was expressed in SF9 cells
Sequence (P03156 whole entry): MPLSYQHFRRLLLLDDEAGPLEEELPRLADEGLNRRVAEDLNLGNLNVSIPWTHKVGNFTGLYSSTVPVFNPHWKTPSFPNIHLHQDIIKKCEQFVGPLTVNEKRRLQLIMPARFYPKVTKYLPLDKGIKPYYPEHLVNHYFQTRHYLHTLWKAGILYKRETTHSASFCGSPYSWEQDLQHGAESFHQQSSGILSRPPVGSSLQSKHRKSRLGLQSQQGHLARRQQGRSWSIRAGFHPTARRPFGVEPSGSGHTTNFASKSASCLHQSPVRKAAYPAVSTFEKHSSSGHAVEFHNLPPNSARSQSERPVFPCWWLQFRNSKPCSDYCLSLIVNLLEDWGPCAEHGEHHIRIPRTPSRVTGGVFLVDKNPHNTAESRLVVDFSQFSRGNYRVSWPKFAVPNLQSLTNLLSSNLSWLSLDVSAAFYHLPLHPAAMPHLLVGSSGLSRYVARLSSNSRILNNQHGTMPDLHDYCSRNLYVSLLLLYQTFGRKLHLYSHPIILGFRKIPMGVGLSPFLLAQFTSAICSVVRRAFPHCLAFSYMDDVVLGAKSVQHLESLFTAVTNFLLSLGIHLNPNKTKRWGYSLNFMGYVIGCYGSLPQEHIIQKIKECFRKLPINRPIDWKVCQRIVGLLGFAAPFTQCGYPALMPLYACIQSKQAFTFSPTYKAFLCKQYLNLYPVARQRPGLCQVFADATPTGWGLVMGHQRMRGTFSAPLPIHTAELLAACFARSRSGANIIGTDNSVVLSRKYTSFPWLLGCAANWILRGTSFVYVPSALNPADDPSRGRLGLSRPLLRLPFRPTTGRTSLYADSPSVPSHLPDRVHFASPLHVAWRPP
Experiment: Inhibition of HBV polymerase (RdDp assay)
Conditions: HBVpol expressed in SF9 cells, 30° C., 120 min, 3H-TTP incorporation; Table 3 triphosphates; read-out: HBVrt IC50
READOUT: IC50 (nM)

>>> df
                                   compound                           target_of_assay  readout  relation  obs_value
0  C=C1[C@@H](n2cnc3c(=O)[nH]c(N)nc32)C[C@H](O)[C@@]1(F)COP(=O)(O)OP(=O)(O)OP(=O)(O)O [Example 25]  Recombinant full-length HBV polymerase (HBVpol) (Hepatitis B virus genotype D subtype ayw)     IC50         =        9.9
1  C=C1[C@@H](n2cc(C)c(=O)[nH]c2=O)C[C@H](O)[C@@]1(F)COP(=O)(O)OP(=O)(O)OP(=O)(O)O [Example 24]  Recombinant full-length HBV polymerase (HBVpol) (Hepatitis B virus genotype D subtype ayw)     IC50         =        2.9
2  C=C1[C@@H](n2cc(C)c(=O)[nH]c2=O)C[C@H](O)[C@@]1(C#N)COP(=O)(O)OP(=O)(O)OP(=O)(O)O [Example 32]  Recombinant full-length HBV polymerase (HBVpol) (Hepatitis B virus genotype D subtype ayw)     IC50         >       1000
3  C=C1[C@@H](n2ccc3c(N)ncnc32)C[C@H](O)[C@@]1(F)COP(=O)(O)OP(=O)(O)OP(=O)(O)O [Example 27]  Recombinant full-length HBV polymerase (HBVpol) (Hepatitis B virus genotype D subtype ayw)     IC50         =        7.2
4  C=C1[C@H](COP(=O)(O)OP(=O)(O)OP(=O)(O)O)[C@@H](O)C[C@@H]1n1ccc2c(=O)[nH]c(N)nc21 [Example 23]  Recombinant full-length HBV polymerase (HBVpol) (Hepatitis B virus genotype D subtype ayw)     IC50         =        8.8
5  C=C1[C@@H](n2cnc3c(N)ncnc32)C[C@H](O)[C@@]1(F)COP(=O)(O)OP(=O)(O)OP(=O)(O)O [Example 26]  Recombinant full-length HBV polymerase (HBVpol) (Hepatitis B virus genotype D subtype ayw)     IC50         =        8.2
6  C=C1[C@@H](n2ccc(N)nc2=O)C[C@H](O)[C@@]1(C#N)COP(=O)(O)OP(=O)(O)OP(=O)(O)O [Example 33]  Recombinant full-length HBV polymerase (HBVpol) (Hepatitis B virus genotype D subtype ayw)     IC50         =        220
7  C=C1[C@@H](n2ccc(N)nc2=O)C[C@H](O)[C@@]1(CF)COP(=O)(O)OP(=O)(O)OP(=O)(O)O [Example 29]  Recombinant full-length HBV polymerase (HBVpol) (Hepatitis B virus genotype D subtype ayw)     IC50         =        380
